Tested on: NCI-H2405
Experiment: relative viability (nuclei count vs DMSO), 5 days (fraction); higher = more cells survive
Settings: first compound 0.05 µM
outcome.measure: relative viability
The answer should be a number; do not append a unit.

Please look up its relative viability: Nc1ccn([C@@H]2O[C@H](CO)[C@@H](O)[C@@H]2O)c(=O)n1 [Cytarabine] + O=C(c1cc(Cc2n[nH]c(=O)c3ccccc23)ccc1F)N1CCN(C(=O)C2CC2)CC1 [Olaparib] (partner 8 µM) 0.509

Another compound to check: Nc1ccn([C@@H]2O[C@H](CO)[C@@H](O)[C@@H]2O)c(=O)n1 [Cytarabine] + Nc1nc2[nH]cc(CCc3ccc(C(=O)N[C@@H](CCC(=O)O)C(=O)O)cc3)c2c(=O)[nH]1 [Pemetrexed] (partner 0.2 µM) 0.61

Next record, please: COc1cc2nccc(Oc3ccc(NC(=O)Nc4cc(C)on4)c(Cl)c3)c2cc1OC [Tivozanib] + NC(=O)Nc1cc(-c2cccc(F)c2)sc1C(=O)N[C@H]1CCCNC1 [AZD7762] (partner 0.2 µM) 0.735

Query Nc1ccn([C@@H]2O[C@H](CO)[C@@H](O)[C@@H]2O)c(=O)n1 [Cytarabine] + Cc1nc(Nc2ncc(C(=O)Nc3c(C)cccc3Cl)s2)cc(N2CCN(CCO)CC2)n1 [Dasatinib] (partner 0.075 µM) next 0.167

---

System: NCI-H1944
Assay: relative viability (nuclei count vs DMSO), 5 days (fraction); higher = more cells survive
Details: first compound 0.08 µM
Labelling: relative viability reported below 0.5 becomes 1; at or above becomes 0.

Would you kindly verify if relative viability of Cc1cnc(-c2cnc(NCCNc3ccc(C#N)cn3)nc2-c2ccc(Cl)cc2Cl)[nH]1 + Nc1nc2[nH]cc(CCc3ccc(C(=O)N[C@@H](CCC(=O)O)C(=O)O)cc3)c2c(=O)[nH]1 [Pemetrexed] (partner 0.2 µM) is strictly less than 0.5? 0

Same thing, different molecule: Cc1cnc(-c2cnc(NCCNc3ccc(C#N)cn3)nc2-c2ccc(Cl)cc2Cl)[nH]1 + Nc1ncn([C@H]2C[C@H](O)[C@@H](CO)O2)c(=O)n1 [Decitabine] (partner 2 µM) 1

Same question, O=c1[nH]c2ccccc2n1C1CCN(CCCC(c2ccc(F)cc2)c2ccc(F)cc2)CC1 [Pimozide] + Cc1nc(Nc2ncc(C(=O)Nc3c(C)cccc3Cl)s2)cc(N2CCN(CCO)CC2)n1 [Dasatinib] (partner 0.075 µM) this time 1

Please answer likewise for O=c1[nH]c2ccccc2n1C1CCN(CCCC(c2ccc(F)cc2)c2ccc(F)cc2)CC1 [Pimozide] + CC(=O)c1c(C)c2cnc(Nc3ccc(N4CCNCC4)cn3)nc2n(C2CCCC2)c1=O [Palbociclib] (partner 0.5 µM) 1

Further, for O=c1[nH]c2ccccc2n1C1CCN(CCCC(c2ccc(F)cc2)c2ccc(F)cc2)CC1 [Pimozide] + Cc1nc(NC(=O)N2CCC[C@H]2C(N)=O)sc1-c1ccnc(C(C)(C)C(F)(F)F)c1 [Alpelisib] (partner 2 µM) ? 0

---

Exercise: state measured relative viability for each of the molecules provided.
Test system: NCI-H1915
Assay: relative viability (nuclei count vs DMSO), 5 days (fraction); higher = more cells survive
Conditions: first compound 0.1581 µM

State the recorded relative viability for this entry: Nc1ccn([C@@H]2O[C@H](CO)[C@@H](O)[C@@H]2O)c(=O)n1 [Cytarabine] + CS(=O)(=O)CCNCc1ccc(-c2ccc3ncnc(Nc4ccc(OCc5cccc(F)c5)c(Cl)c4)c3c2)o1 [Lapatinib] (partner 2 µM) 0.393

Another molecule to check: Nc1ccn([C@@H]2O[C@H](CO)[C@@H](O)[C@@H]2O)c(=O)n1 [Cytarabine] + NC(=O)Nc1cc(-c2cccc(F)c2)sc1C(=O)N[C@H]1CCCNC1 [AZD7762] (partner 0.2 µM) 0.155

Same question, COc1cc2nccc(Oc3ccc(NC(=O)Nc4cc(C)on4)c(Cl)c3)c2cc1OC [Tivozanib] + CS(=O)(=O)N1CCN(Cc2cc3nc(-c4cccc5[nH]ncc45)nc(N4CCOCC4)c3s2)CC1 [Pictilisib] (partner 1 µM) this time 0.485

Input Nc1ccn([C@@H]2O[C@H](CO)[C@@H](O)[C@@H]2O)c(=O)n1 [Cytarabine] + CC(C)C[C@H](NC(=O)[C@H](Cc1ccccc1)NC(=O)c1cnccn1)B(O)O [Bortezomib] (partner 0.002 µM) 0.385

Consider next the molecule Nc1ccn([C@@H]2O[C@H](CO)[C@@H](O)[C@@H]2O)c(=O)n1 [Cytarabine] + CC1(C)CCC(c2ccc(Cl)cc2)=C(CN2CCN(c3ccc(C(=O)NS(=O)(=O)c4ccc(N[C@H](CCN5CCOCC5)CSc5ccccc5)c(S(=O)(=O)C(F)(F)F)c4)cc3)CC2)C1 [Navitoclax] (partner 0.5 µM) in the same way. 0.411

And then COc1cc2nccc(Oc3ccc(NC(=O)Nc4cc(C)on4)c(Cl)c3)c2cc1OC [Tivozanib] + C[C@@H](Oc1cc(-c2cnn(C3CCNCC3)c2)cnc1N)c1c(Cl)ccc(F)c1Cl [Crizotinib] (partner 1 µM) , what is it? 0.924

Reference source: the supplement of paper PMC10307832
